B1: ADD1 (parent)
chain: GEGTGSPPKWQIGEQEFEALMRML

# Variants of: B1
# assay-details: protein stability index of a GFP-peptide fusion (GPS, HEK-293T) (PSI 1-6); higher = more stable;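 further: lentivirally expressed fusions sorted by FACS into six bins by GFP to DsRed ratio, PSI derived from sequencing read proportions per bin multiplied by bin number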
# condition-label: c terminus: a fixed tail appended
readout: protein stability index
Reply: number alone, nothing else.

Consider the worked cases shown below.
{"columns": ["mutation-label", "readout", "recorded-result"],
 "data": [
  ["P7E", "protein stability index", 3.04],
  ["Q15A", "protein stability index", 2.75],
  ["S6C", "protein stability index", 2.75]
]}

Sure, the documented protein stability index for `L24N` is 4.13

Sure, the documented protein stability index for `R22M` is 2.55

Sure, the documented protein stability index for `E16Q` is 2.37

Sure, the documented protein stability index for `M23T` is 3.38

Sure, the documented protein stability index for `K9A` is 3.76

Sure, the documented protein stability index for `P8T` is 2.85

Sure, the documented protein stability index for `E2T` is 3.33

Sure, the documented protein stability index for `T4M` is 3.01
